test_method_notes: Antiviral activity against 1 MOI BVDV NADL infected in MDBK cells assessed as reduction in viral titer after 22 hrs
Assay type: functional, cell-based, Bovine viral diarrhea virus 1-NADL
assay_setup: Bovine viral diarrhea virus isolates and strains, MDBK, 22 h
pEC50: −log10 of the molar value.
# binarize pEC50: threshold 6 inclusive, high side TRUE, low side FALSE

CCCCCC#CCCN1C[C@H](O)[C@@H](O)[C@H](O)[C@H]1CO	FALSE
OC[C@@H]1[C@@H](O)[C@H](O)[C@@H](O)CN1CCCCCCOC1CCCCC1C1CCCCC1 (some centres undefined)	TRUE
OC[C@@H]1[C@@H](O)[C@H](O)[C@@H](O)CN1CCCCCCOC1CCCCC1	TRUE
CCCOc1ccc(CCCN2C[C@H](O)[C@@H](O)[C@H](O)[C@H]2CO)cc1	TRUE
OC[C@@H]1[C@@H](O)[C@H](O)[C@@H](O)CN1CCCCCCOc1cccnc1	FALSE

Kindly consider the entry below.
# bool: pEC50 of `OC[C@@H]1[C@@H](O)[C@H](O)[C@@H](O)CN1CCCCCCOc1cc(F)ccc1F` >= 6 TRUE

###

Entries and their measured pEC50 follow.
test_method_notes: Antiviral activity against 1 MOI BVDV NADL infected in MDBK cells assessed as reduction in viral titer after 22 hrs
Format: functional, cell-based, Bovine viral diarrhea virus 1-NADL
assay_setup: Bovine viral diarrhea virus isolates and strains, MDBK, 22 h
When answering, recall that pEC50 equals minus log10 of the concentration in mol/L, and write that number alone.

OC[C@@H]1[C@@H](O)[C@H](O)[C@@H](O)CN1CC/C=C/CCOc1cc(F)ccc1F	6.05
CC1CCCC(OCCCCCCN2C[C@H](O)[C@@H](O)[C@H](O)[C@H]2CO)C1C (stereo partly drawn)	5.92

Need pEC50 of `OC[C@@H]1[C@@H](O)[C@H](O)[C@@H](O)CN1CCCCCCOc1cc(Cl)ccc1Cl` , thanks. 5.82
